System: Hek293T
Assay: Primary qHTS to identify gynecologic anti-cancer compounds using libraries of approved drugs and bioactive compounds (AID 1345084); also: nearly all actives have a fitted effect of over 55% in size
Conditions: Gynecologic cancer cell panel viability, ATPlite luminescence, 48 h, control line for the selectivity index; series mostly up to 57.5 µM
Inconclusive results are not listed. The source made the active and inactive calls. Calls follow the shape of the dose curve; as a rule, active = well fitted cell-killing curve with a large enough effect; inconclusive = small, poorly fitted or top-dose-only effect, or effect the other way; inactive = flat fitted curve, though single readings scatter.
Outcome codes: True for active, False for inactive

compound="Cc1sc2c(c1C)C(c1ccc(Cl)cc1)=NC(CC(=O)Nc1ccc(O)cc1)c1nnc(C)n1-2 (configuration not stated)" system_under_test=Hek293T classification=False
compound=C=C(C)[C@@]12O[C@@H]1[C@@]1(C)C(=C[C@H]2O)CC[C@@H](O)[C@@H]1C system_under_test=Hek293T classification=False
compound="C/C=C(\\C)C(=O)O[C@H]1CC2C(=C1C)[C@H]1OC(=O)[C@](C)(O)[C@]1(O)[C@H](OC(=O)CCC)C[C@@]2(C)OC(C)=O (some centres not stated)" system_under_test=Hek293T classification=False
compound="C[C@@H]1O[C@@H](O[C@H]2CC[C@@]3(C)C(CC[C@@H]4C3CC[C@]3(C)[C@@H](C5=CC(=O)OC5)CC[C@]43O)C2)[C@H](O)[C@H](O)[C@H]1O (some centres not stated)" system_under_test=Hek293T classification=True
compound=N#Cc1ccccc1-c1cc(-c2ccccn2)cn(-c2ccccc2)c1=O system_under_test=Hek293T classification=False
compound=CC(C)[C@H](NC(=O)c1nn(Cc2ccc(F)cc2)c2ccccc12)C(N)=O system_under_test=Hek293T classification=False
compound="C[C@@H]1O[C@@H](O[C@H]2CC[C@@]3(C)C(CC[C@@H]4C3CC[C@]3(C)[C@@H](C5=CC(=O)OC5)CC[C@]43O)C2)[C@H](O[C@@H]2O[C@H](CO)[C@@H](O)[C@H](O)[C@H]2O)[C@H](O)[C@H]1O (some centres not stated)" system_under_test=Hek293T classification=True
compound=CCCN(CCC)CCc1ccc(OC)c(OCCc2ccccc2)c1 system_under_test=Hek293T classification=False
compound=CC(=O)O[C@H]1CC[C@@]2(CI)C(=CC[C@@H]3[C@@H]2CC[C@]2(C)C(=O)CC[C@@H]32)C1 system_under_test=Hek293T classification=False
compound=CN1CCC2=C(C1)c1ccccc1Cc1ccccc12 system_under_test=Hek293T classification=False
compound=CS[C@]1(CO)C(=O)N2[C@H]3C(=CC=C[C@@H]3O)C[C@@]2(SC)C(=O)N1C system_under_test=Hek293T classification=False
compound=Cc1c(Cl)c(OCC(=O)N2CCN(C)CC2)nc2sc(C(=O)NC3CC3)c(N)c12 system_under_test=Hek293T classification=False
compound="CN1C2CCC1CC(OC(=O)N1Cc3ccccc3NC1=O)C2 (configuration not stated)" system_under_test=Hek293T classification=False
compound="CC12CCC3C(C1)c1c(cc(O)c(C(=O)c4ccccc4)c1OC3(C)C)O2 (configuration not stated)" system_under_test=Hek293T classification=False
compound=COc1ccc2[nH]c(-c3ccccc3)c(CCN(C)C)c2c1 system_under_test=Hek293T classification=False
compound=C/C1=C/[C@@H](C)C/C=C/[C@H]2[C@@H]3O[C@]3(C)[C@@H](C)[C@H]3[C@H](Cc4c[nH]c5ccccc45)NC(=O)[C@]32C(=O)/C=C\C(=O)[C@@H]1O system_under_test=Hek293T classification=False
compound="CC1CCCC(=O)CCC/C=C/c2cc(O)cc(O)c2C(=O)O1 (configuration not stated)" system_under_test=Hek293T classification=False
